# Assayed target: T1, human 4-1BB, full length, on transfected cells (human, UniProt Q07011 24-255)
# T1 construct: whole, on cells; also called CHOK1-h4-1BB
# T1 sequence (Q07011 24-255): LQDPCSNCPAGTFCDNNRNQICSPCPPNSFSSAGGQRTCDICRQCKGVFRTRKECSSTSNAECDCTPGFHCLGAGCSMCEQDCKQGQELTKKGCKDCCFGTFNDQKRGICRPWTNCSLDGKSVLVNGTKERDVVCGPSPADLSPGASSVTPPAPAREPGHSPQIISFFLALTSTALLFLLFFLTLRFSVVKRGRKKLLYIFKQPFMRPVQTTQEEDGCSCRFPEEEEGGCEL
# Assay notes: FACS, CHOK1-h4-1BB cells; Ab 0.00064 ug/ml
Readout name: average fluorescence intensity (MFI)
Your answer is read as MFI, so omit the unit and give the number.

Exercise: Name the recorded average fluorescence intensity for 11H10C9 (antibody, V domains shown) VH: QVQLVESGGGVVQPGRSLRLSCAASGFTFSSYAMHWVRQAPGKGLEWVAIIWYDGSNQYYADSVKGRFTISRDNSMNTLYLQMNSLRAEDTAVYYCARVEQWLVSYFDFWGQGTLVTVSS VL: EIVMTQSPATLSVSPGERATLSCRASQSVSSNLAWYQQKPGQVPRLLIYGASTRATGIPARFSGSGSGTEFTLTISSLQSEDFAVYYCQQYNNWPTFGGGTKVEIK .
Solution: 6.4
